Source: paper PMC6888133

The entries below come with measured Kd values attached.
Molecular target: rAr-FAR-1 (Ar-FAR-1) (Aphelenchoides ritzemabosi, UniProt A0A2D0WIZ9)
Sequence (A0A2D0WIZ9 1-181): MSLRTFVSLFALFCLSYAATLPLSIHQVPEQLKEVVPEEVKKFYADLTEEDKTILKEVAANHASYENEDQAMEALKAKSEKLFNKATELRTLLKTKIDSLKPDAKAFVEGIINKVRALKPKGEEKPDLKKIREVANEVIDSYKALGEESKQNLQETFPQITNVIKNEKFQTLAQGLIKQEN
The reply should contain only the number, in nM.

| structure string | system tested | Kd [nM] |
| --- | --- | --- |
| CC1=C(/C=C/C(C)=C/C=C/C(C)=C/CO)C(C)(C)CCC1 | rAr-FAR-1 (Ar-FAR-1) (Aphelenchoides ritzemabosi, UniProt A0A2D0WIZ9) | 67.9 |

Q. For CN(C)c1cccc2c(S(=O)(=O)NCCCCCCCCCCC(=O)O)cccc12 , what is its reported Kd?
A. 40.5
